# Target Or Test System: T1, human MSLN-R3-3 polypeptide (human)
# T1 construct: Part of region R3 of human MSLN; also called hMSLN-R3-3; human MSLN-R3-3 protein
# Assay Overview: ELISA, coated antigen, no antibody (blank)
Test Readout: OD450

Query string: Tell me its OD450 given S009-F4-127.10 chimeric antibody (antibody, human IgG1, kappa, V domains shown, Human-murine chimeric antibody, human IgG1/kappa constant regions) VH: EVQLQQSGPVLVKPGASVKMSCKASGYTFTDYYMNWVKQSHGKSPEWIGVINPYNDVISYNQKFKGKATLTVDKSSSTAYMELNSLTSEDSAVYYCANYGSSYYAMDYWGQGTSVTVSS VL: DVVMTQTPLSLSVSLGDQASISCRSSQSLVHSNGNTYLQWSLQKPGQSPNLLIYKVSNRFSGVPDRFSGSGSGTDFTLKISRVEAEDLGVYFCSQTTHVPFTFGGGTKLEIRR as the entry.
Result string: 0.07
